# procedure_text: yeast display, Sf9 membrane polyspecificity reagent, FACS + sequencing; frameworks hold sequencing errors
outcome_measure: polyreactivity (PSR sort gate)

query_sequence	polyreactivity (PSR sort gate)
QVQLVESGGGLVQAGGSLRLSCAASGFIFPLYAMGWYRQAPGKERELVAAITWRGDTTSYADSVKGSFTISRDNAKNTVYLQMNSLKPEDTAVYYCAAEFYDWWYYGGGEYWGQGTQVTVSS	high polyreactivity
QVQLVESGGGLVQAGGSLRLSCAASGRIFYRYAMGWYRQAPGKERELVAAITYSGSSTYYADSVKGRFTISRDNAKNTVYLQMNSLKPEDTAVYYCAARFQSTNGHKYYYWGQGTQVTVSS	high polyreactivity
QVQLVESGGGLVQAGGSLRLSCAASGRIFSFYAMGWYRQAPGKERELVATISKRAGSTYYADSVKGRFTISRDNAKNTVYLQMNSLKPEDTEVYYCYAYKRGYLYRYNYWGQGTQVTVSS	high polyreactivity
QVQLVESGGGLVQAGGSLRLSCAASGRTFQYYVMGWYRQAPGKERELVAAITSAGSTNYADSVKGRFTISRDNAKNTVYLQMNSLKPEDTAVYYCNADLWVNLHNDDDYWGQGTQVTVSS	low polyreactivity
QVQLVESGGGLVQAGGSLRLSCAASGSIFYPYAMGWYRPAPGTERELVASISWSGGSTRYADSVKGRFTISRDNAKNSVYLQMNSLKPEDTAVYYCNAGYRTRHISLYDYWGQGTQVTVSS	high polyreactivity
QVQLGESGGGLVQAGGSLRLSCAASGSTFNLYAMGWYRQAPGKERELVAAISFSGGSTYYADSVKGRFTISRDNAKNTVYLQMNSLKPEDTAVYYCAAVESSYEAWDTYYYWGQGTQVTVSS	low polyreactivity
QVQLVESGGGLVQAGGSLRLSSAASGRIFNWYTMGWYRQSPGKERELVAAITSGGTTTYYADSVKGRFTISRDNAKNTVYLQMTSLKPEDTAVYYCAARRGGRRGYDYWGQGTQVTVSS	high polyreactivity
QVQLVESGGGLVQAGGSLRLSCAASGITISPNAMGWYRQAPGKERELVAAIDWSGDRTYYADSVKGRFTISRDNAKNTVYLQINSLKPEDTAVYYCNVVRRSPGDYSYYYWGQGTQVTVSS	low polyreactivity
QVQLVESGGGLVQAGGSLRLSCAASGSIFYFNAMGWYRQAPGKERELVADISWSGGESTYYADSVKGRFTISRDNAKNTVYLQMNSLKPEYTAVYYCAADYWSPYVYVYWGQGTQVTLSS	low polyreactivity
QVQLVESRGGLVQAGCSLRLRCAASGYIFYGYDKGWYRPAPGKERELVAGITYSGGGGTHYADSVKGRFTISRDNAKNTVYLQMNSLKQEDRGVYYCAKADPQLNRTYYSYGMDSWGQGTQVTVSS	low polyreactivity

Next, consider the following sequence.
Data request: Looking for the measured polyreactivity (PSR sort gate) of `QDQLVESGGGLVQAGGSHRLSCAASGSIFYRNAMGWFRQAPGKERELVAAISARGGRTNYADSVKGRFTISRDNAKNTVYLQMTSLKPEDTAVYYCNTADSWYHRSQAYDYWGQGTQVTVSS` , can you help?
Data returned: high polyreactivity

====

# procedure_text: yeast display, Sf9 membrane polyspecificity reagent, FACS + sequencing; frameworks hold sequencing errors
outcome_measure: polyreactivity (PSR sort gate)

Example entries begin here.
query_sequence	polyreactivity (PSR sort gate)
QVQLVESGGGLVQAGGSLRLSCAASGSTFWVNVMGWYRQAPGKERELVATITSGGRTNYADSVKGRFTISRDNAKNTVYLQMNSLKPADTAVYDCAADLKRGDLMDYWGQGTQVTVSS	low polyreactivity
QVQLVESGGGIVQAGGSLRLSCAASGFTFEYYAMGWYRQAPGKERELVADITSGGTYYADSVKGRFTISRDNAKNTVYLQMNSLKPEDTAVYYCAADFGQPYTYYAKENYWGQGTQVTVSS	low polyreactivity
QVQLVESGGGIGQAGGSLRLSCAASGFTFSRYTMAWFRRAPGKERELVAAINRRGGSTYYADSVKGRFTISRDNAKNTVYLQMNCEKPEDTAVYYCAATYTVRSGNGIANDYWGQGTQVTVSS	high polyreactivity
QVQIEESGGGLVQAGGSLPLSCAASGTIFKYYTRGWYRLAPGKERELFAAISGSGGTTYYADSVKGRFTISRDNAKNTVYLQMNSLKPEDTAVYYCATAYYRAFRGDYWGQGTQVTVSS	high polyreactivity
QVQLVESGGGLVQAGGSLRLRCAASGMGWYRQAPGKEWEKVATITWSDGITYADSVKGRFTISRDNAKNTVYLQMNSLKPEDTAVYYCNADWDQTGTVFYSFGLREMDSWGQCTQVTVSS	low polyreactivity
QVQLVESGGGLVQAGGSLRLSCAASGYIFFRNAMGWSRQAPGKEREFVADIRFSGGNTYYADSVKGRFTISRDNAKNTVYFQKISLKPEDTAVYYCSADLVYTYAYDYWGQGTQVTVSS	low polyreactivity

Hi there! I need polyreactivity (PSR sort gate) for each item below, if you can.
1. QVQLVESGGGLVQAGGSLRLSCAASGRTFIRNAMGWYRQAPGKERELVAAISGTGGSTYYADSVKGRLTISRDNAKNTVYLQMNSLKPEDTAVYYCAADRPAPGYDYWGQGTQVTVSS
2. QVQLVESGGGLVQAGGSLRLSCAASGFTFGYYAMGWSRQAPGKERELVAAISWSGSRTYYADSVKGRFTISRDNAKNTVYLQMNSLKPEDTAVYYCAAQRYRYLYTSTGWQRYDYYYWGQGTQVTVSS
3. QVQLVESGGGLVQAGGSLRLSCAASGFISFPYAMGWYRQAPGKERELDASITRSGGNTYYADSVKGRFTISRDNAKNTVYLQMNRLKPEDTAVYYCNAQIYTYRTGRGYSRLDYWGQGTQVTVSS
4. QVQLVESGGGLVQAGGSLRLSCAASGSTFGYYAMGWYRQAPGKERELVASITSDGSTNYADSVKGRFTISRDNAKNTVYLQMNSLKPEDSSVYYCAAYVWRYWHEYDYWGQGTQVTVSS
5. QVQLVESGGGLVQAGGSLRLSCAASGFTFDRYTMGWYRQAPGKEWELVAVIRRGGSTYYADSVKGRFTISRDNAKNTVYLQMNSLKPEDTAVYYCNALSALAVEDGYWGQGTQVTVSS
6. QVQLVESGGGIVQAGGSLRLSCAASGITFFYYAMGWYRQAPGKERELVASISSGGSTYYADSVKGRFTISRDNAKNTVYLQMNSLKPEDTAVYYCAAPTGWYPAYGEYEYWGQGTQVTVSS

Data returned:
low polyreactivity
high polyreactivity
high polyreactivity
low polyreactivity
low polyreactivity
low polyreactivity

Field: polyreactivity (PSR sort gate). Fill in for each record below.
1. QVQHVESGGGLVQAGGSLRLSCAASGSTFYFYTMGWYRQAPGKERELVAAITYSGGSTYADSVKGRFTISRDNAKNTDYLQMNSLKPEDTAVYYCAAASYFYLYLLEDYWGQGTQVTVSS
2. QVQLVESGGGLVQAGGSLRLSCAASGRTFGHNAMGWYRQAPGKERELVAAISASGSNTYYADSVKGRFTISRDNAKNTVYLQMNSLKPEDTAVYYCAKQVYRPGQQSRYDYWGQGTQVTVSS
3. QVQLVESGGGLVQAGGSLRLSCAASGFIFKSYAMGWYRQAPGKETELVAAISRSGSSTYYADSVKGRFTISRDNAKNTVYLQMNSLKPEDTAVYYCAKKGYRFIHFGYDYWGQGTQVTVSS
4. QVQLVESGGGLVQAGGSLRLSCAASGSIFSYYAMGWYRQAPGKERELFAVINSGGRTNYADSVKGRFTISRDNAKNTVYLQMNSLKPEDTAVYYCAAQGYFVDRAGRYYRGDYWGQGTQVTVSS

Data returned:
1. low polyreactivity
2. low polyreactivity
3. high polyreactivity
4. high polyreactivity

FYI, the data here is from the nanobody polyreactivity screen of Harvey et al. (2022).
